Biological target: UniProtKB P03951
Sequence (P03951 388-625 limits assumed): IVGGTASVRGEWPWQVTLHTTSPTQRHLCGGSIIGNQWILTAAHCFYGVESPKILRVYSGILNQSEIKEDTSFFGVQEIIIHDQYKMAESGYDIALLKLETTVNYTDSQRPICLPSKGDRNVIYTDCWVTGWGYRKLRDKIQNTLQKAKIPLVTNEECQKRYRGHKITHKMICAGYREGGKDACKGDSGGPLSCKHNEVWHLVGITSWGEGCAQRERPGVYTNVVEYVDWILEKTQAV
Sequence (P03951 19-387 partner limits assumed): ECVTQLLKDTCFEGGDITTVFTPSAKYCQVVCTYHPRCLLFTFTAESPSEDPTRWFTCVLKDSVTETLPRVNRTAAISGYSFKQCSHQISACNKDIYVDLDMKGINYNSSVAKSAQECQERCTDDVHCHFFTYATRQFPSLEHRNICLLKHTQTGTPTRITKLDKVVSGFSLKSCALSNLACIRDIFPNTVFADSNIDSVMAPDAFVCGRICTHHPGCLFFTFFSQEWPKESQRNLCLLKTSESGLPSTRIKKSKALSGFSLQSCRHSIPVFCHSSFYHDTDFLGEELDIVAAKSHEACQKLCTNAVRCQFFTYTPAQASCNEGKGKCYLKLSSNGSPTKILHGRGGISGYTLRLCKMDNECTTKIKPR
Assay: Factor XIa inhibition assay (FLINT) utilizing a fluorophore-quencher pair peptide substrate 5Fam-[…]-K5Tamra
Assay type: biochemical
Settings: kinetic (KIN) reads; values in nM; read-out: FXIa KIN Inh IC50
MEASURE: IC50 (nM)

Worked set:
{"MOLECULE": "C[C@@H]1CC(c2ncc(-c3cnc(N)c(F)c3)[nH]2)n2c1cc(-c1c(-n3cnnn3)ccc(Cl)c1F)cc2=O (stereo in doubt) [Example 60]", "IC50 / nM": 47.8}
{"MOLECULE": "O=c1cc(-c2c(-n3cnnn3)ccc(Cl)c2F)cc2n1[C@H](c1ncc(-c3ccnc(CO)c3F)[nH]1)CC21CC1 [Example 7]", "IC50 / nM": 6.9}
{"MOLECULE": "C[C@H]1C[C@@H](c2ncc(-c3ccnc(N)c3F)[nH]2)n2c1nc(-c1c(-n3cnnn3)ccc(Cl)c1F)cc2=O (relative stereo) [Example 88]", "IC50 / nM": 2.6}

1: CC(O)c1nccc(-c2cnc([C@H]3CC4(CC4)c4cc(-c5c(-n6cnnn6)ccc(Cl)c5F)cc(=O)n43)[nH]2)c1F (single isomer, unassigned) [Example 6]
2: C[C@@H]1C[C@H](c2nc(-c3ncc(N)nc3Cl)c[nH]2)n2c1nc(-c1c(-n3cnnn3)ccc(Cl)c1F)cc2=O (single isomer, unassigned) [Example 94]
3: C[C@H]1C[C@@H](c2ncc(-c3cc(N)ncc3F)[nH]2)n2c1cc(-c1c(-n3cnnn3)ccc(Cl)c1F)cc2=O [Example 19]
stdin: Rank the 3 molecules: largest IC50 first, smallest last. # list labels per requested ordering
stdout: 3, 1, 2

====

Target: human plasma kallikrein (Homo sapiens, UniProt P03952)
Sequence (P03952 391-638 limits assumed): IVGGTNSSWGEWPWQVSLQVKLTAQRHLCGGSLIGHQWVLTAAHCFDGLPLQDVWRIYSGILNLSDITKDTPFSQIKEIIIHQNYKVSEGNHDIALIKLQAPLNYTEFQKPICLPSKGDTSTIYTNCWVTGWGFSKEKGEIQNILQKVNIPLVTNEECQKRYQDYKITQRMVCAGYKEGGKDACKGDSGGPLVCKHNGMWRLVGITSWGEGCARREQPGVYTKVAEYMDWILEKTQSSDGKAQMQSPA
Sequence (P03952 20-390 partner limits assumed): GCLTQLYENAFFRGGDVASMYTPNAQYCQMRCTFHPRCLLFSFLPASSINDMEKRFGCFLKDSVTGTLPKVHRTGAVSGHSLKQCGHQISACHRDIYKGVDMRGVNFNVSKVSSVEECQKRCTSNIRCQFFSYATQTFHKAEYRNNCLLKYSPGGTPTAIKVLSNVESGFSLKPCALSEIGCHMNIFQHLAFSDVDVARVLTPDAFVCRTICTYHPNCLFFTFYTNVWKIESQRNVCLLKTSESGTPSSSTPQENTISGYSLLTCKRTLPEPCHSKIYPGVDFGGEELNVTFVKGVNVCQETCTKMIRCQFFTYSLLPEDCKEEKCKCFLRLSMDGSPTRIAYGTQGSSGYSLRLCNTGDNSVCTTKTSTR
Experiment: Kallikrein inhibition assay (FLINT) utilizing a quenched AMC peptide substrate Z-Gly-Pro-Arg-AMC
Format: biochemical
Conditions: kinetic (KIN) reads; unit μM; read-out: Kallikrein KIN Inh IC50
MEASURE: IC50 (µM)

Worked set:
{"MOLECULE": "C[C@@H]1C[C@@H](c2ncc(-c3ccc(NC(=O)C4CC4)nc3)[nH]2)n2c1nc(-c1c(-n3cnnn3)ccc(Cl)c1F)cc2=O (stereo in doubt) [Example 122]", "UNITS TEXT": "µM", "TEST VALUE": 5.6}
{"MOLECULE": "C[C@@H]1C[C@H](c2ncc(-c3ccc(N)nc3F)[nH]2)n2c1nc(-c1c(-n3cnnn3)ccc(Cl)c1F)cc2=O (stereo in doubt) [Example 138]", "UNITS TEXT": "µM", "TEST VALUE": 4.3}
{"MOLECULE": "C[C@H]1C[C@@H](c2ncc(-c3ccc(N)nc3Cl)[nH]2)n2c1cc(-c1c(-n3cnnn3)ccc(Cl)c1F)cc2=O (relative stereo) [Example 57]", "UNITS TEXT": "µM", "TEST VALUE": 3.4}
{"MOLECULE": "C[C@H]1CC(c2nc(F)c(-c3ccc(N)nc3)[nH]2)n2c1cc(-c1c(-n3cnnn3)ccc(Cl)c1F)cc2=O (stereo in doubt) [Example 40]", "UNITS TEXT": "µM", "TEST VALUE": 6.4}

P: C[C@@H]1C[C@@H](c2ncc(-c3ccc(N)nc3F)[nH]2)n2c1nc(-c1c(-n3cnnn3)ccc(Cl)c1F)cc2=O (relative stereo) [Example 137]
Q: C[C@H]1C[C@@H](c2ncc(-c3cc(N)nn3C)[nH]2)n2c1cc(-c1c(-n3cnnn3)ccc(Cl)c1F)cc2=O [Example 15]
stdin: Exercise: compare P and Q ; which one has the greater IC50? Respond using the label that marks the chosen record.
stdout: P
